# TEST SYSTEM: ATP-dependent Clp protease proteolytic subunit (Bacillus subtilis (strain 168)) (UniProt P80244)
# Sequence (P80244 whole entry, looked up): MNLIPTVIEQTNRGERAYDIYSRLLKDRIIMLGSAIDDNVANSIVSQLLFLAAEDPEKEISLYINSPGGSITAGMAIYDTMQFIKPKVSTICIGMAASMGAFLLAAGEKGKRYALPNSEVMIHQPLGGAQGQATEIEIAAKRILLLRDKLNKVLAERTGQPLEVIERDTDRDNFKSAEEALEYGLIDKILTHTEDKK
# ASSAY DETAILS: qHTS Assay for Activators of ClpP; also: the source files actives as falling curves though it sought activators and does not explain the sign; nearly all actives have a fitted effect of over 65% in size
# DETAILS: purified B. subtilis ClpP, FRET peptide cleavage, 20 min; series mostly up to 57.5 µM
In all, about 340,000 compounds went through this assay and about 6,400 (1.9%) were called active. Another 4% or so got no clear call; they are omitted. Calls follow the shape of the dose curve; as a rule, active = well fitted falling curve with a large enough effect; inconclusive = small, poorly fitted or top-dose-only effect; inactive = no such curve, though single readings can be large or run the other way. This excerpt belongs to a sample that is enriched for actives.
Labels: active, inactive

O=C(NCc1ccc2c(c1)OCO2)c1cc(F)c(F)cc1Cl
inactive
N#Cc1c(N)n(CCOC(=O)c2ccc(Cl)cc2)c2nc3ccccc3nc12
active
Cc1cc2cc3n(c2nn1)N=C(Cl)CC3
inactive
CC(C)(C)OC(=O)c1c(N)n(CCCN2CCCC2=O)c2nc3ccccc3nc12
inactive
CCCCNC(=O)C[C@@H]1C[C@@]2(C(=O)OCC)CCC=C2N(Cc2cccc3ccccc23)C1=O
inactive
CC(C)c1cc(Cn2c3ccccc3c(=O)n2C(C)Cn2cc(C3CC3)nn2)on1 (stereo unspecified)
inactive
CN(C)CCCn1c(N)c(C#N)c2nc(C#N)c(C#N)nc21
inactive
CC(C)Nc1ccc(-n2nc3ccccc3[n+]2[O-])cc1
active
Cc1cc(=O)c2ccc(NC(=O)c3ccccc3)cc2[nH]1
inactive
Cc1nc2c(C(=O)NCc3ccc4c(c3)OCO4)c[nH]n2c(=O)c1Cc1ccccc1F
active
CC1(C(=O)NCC2CCOCC2)Cc2c(-c3cccc(C(N)=O)c3)ccnc2O1 (stereo unspecified)
inactive

====

# TEST SYSTEM: ATP-dependent Clp protease proteolytic subunit (Bacillus subtilis (strain 168))
# ASSAY DETAILS: qHTS Assay for Activators of ClpP; also: potency is read from the fitted curve at half-maximal effect; also: the source files actives as falling curves though it sought activators and does not explain the sign; nearly all actives have a fitted effect of over 65% in size
# DETAILS: purified B. subtilis ClpP, FRET peptide cleavage, 20 min; series mostly up to 57.5 µM
In all, about 340,000 compounds went through this assay and about 6,400 (1.9%) were called active. About 4% were inconclusive and are not listed. Only a selection was taken, and actives are over-represented in it overall.
MEASUREMENT LABEL: Potency

Cc1ccc(-c2cnc(NCc3ccc(C(C)C)cc3)n2C)cc1
28.2 µM (active)
CSc1ccc(CNC(=O)C2(C)CCCN2C)cc1 (stereo unspecified)
inactive
C=CCn1c(-c2sc(-c3ccccc3)nc2C)n[nH]c1=S
inactive
COCCn1c(=S)[nH]c2cc(C(=O)NCCc3ccc(OC)c(OC)c3)ccc2c1=O
inactive
COC(=O)c1ccc2nc(C3CCCCC3)c(Cc3cccc(F)c3)n2c1
inactive
COc1ccc(C2=Nc3cc(C)ccc3OC2)cc1
28.2 µM (active)
COCCn1c(=O)[nH]c2cc(C(=O)NCc3cccnc3)ccc2c1=O
28.2 µM (active)
Cc1ccc(-c2cnc(NC(=O)CCC(=O)N(C)Cc3ccccc3)n2C)cc1
inactive
OC(Cc1ccc2ccccc2n1)c1ccc(Cl)c(Cl)c1 (stereo unspecified)
inactive
C#CC(C)(C)NC(=O)c1cnc(-c2ccccc2)nc1-c1ccccc1
inactive
CN1CCN(C(=O)c2ccc(NC(=O)c3ccc(Br)o3)cc2)CC1
inactive

====

# TEST SYSTEM: ATP-dependent Clp protease proteolytic subunit (Bacillus subtilis (strain 168)) (UniProt P80244)
# ASSAY DETAILS: qHTS Assay for Activators of ClpP; also: the source files actives as falling curves though it sought activators and does not explain the sign; nearly all actives have a fitted effect of over 65% in size
# DETAILS: purified B. subtilis ClpP, FRET peptide cleavage, 20 min; series mostly up to 57.5 µM
The whole screen tested about 340,000 compounds, of which about 6,400 (1.9%) were called active. About 4% were inconclusive and are not listed. Calls come from the whole dose curve; as a rule, active = well fitted falling curve with a large enough effect; inconclusive = small, poorly fitted or top-dose-only effect; inactive = no such curve, though single readings can be large or run the other way. The entries come from a sample that favours actives as a whole.
Labels: 1.0 for active, 0.0 for inactive

Cn1c(NC(=O)c2ccccc2)nc2ccccc21
0.0
O=C(/C=C/c1ccc(Cl)cc1)Nc1ccc(S(=O)(=O)Nc2ncccn2)cc1
0.0
OCCc1ccc(NCCc2ccco2)cc1
0.0
CCOC(=O)c1cc(C)nc(S(C)(=O)=O)c1C#N
0.0
CCCCSc1[nH]c(=O)c(C(=O)OCC)cc1C#N
1.0
COC(=O)Cc1c(C)c2ccc(OCC(=O)NCc3ccc4c(c3)OCO4)cc2oc1=O
1.0
CCc1cc(=O)oc2cc(C)cc(OCC(=O)N3CCC[C@@H]3C(=O)O)c12
0.0
COc1cc2c(C(=O)O)c(C)n(C)c2c2ccccc12
0.0
COc1ccccc1/C=C/C1=NC(=C\N(C)C)/C(=O)O1
1.0
N#Cc1ccc[n+](CC(=O)c2ccc(O)c(O)c2)c1
0.0
O=C(/C=C/c1ccc(Cl)cc1)Nc1ccc(Br)cn1
1.0
CC(C)NC(=O)C1(C)CCCCCN1C(=O)c1ccc(-c2ccccc2)cc1 (configuration not stated)
0.0
CCOC(=O)c1cc(-c2sc(NC(=O)c3ccccc3)nc2C)n(CCO)n1
0.0
Cc1ccc(C)c(C(O)c2ncc(-c3cccc4ccccc34)[nH]2)c1 (configuration not stated)
0.0
Cc1ccc(CN(Cc2cccnc2)C(=S)Nc2cccc(Cl)c2C)cc1
0.0
Cc1cc(OC(C)C(=O)NC2CC(C)(C)NC(C)(C)C2)c2c(C)cc(=O)oc2c1 (configuration not stated)
0.0
COc1cc2nc(Cl)nc(NC3CC3)c2cc1OC
0.0
COc1cccc(-c2nnc(SCC(=O)N3CCC(C)CC3)o2)c1
0.0
COC(=O)[C@@]12C[C@@H](CC(=O)N3CCCCC3)C(=O)N(Cc3ccc4c(c3)OCO4)C1=CCC(C)(C)C2
0.0
CCCCC[C@H](C)N1C[C@@H](COCc2ccccc2)Oc2cc(N3CCC[C@@H]3CO)ccc2S1(=O)=O
0.0
Cc1cc(Br)cn2c(Cc3cccc(F)c3)c(-c3cccc(Br)c3)nc12
0.0
O=C(Nc1ccccc1C(F)(F)F)c1nc(S(=O)(=O)Cc2ccccc2F)ncc1Cl
0.0
OC(CBr)CN1CCCCC1 (configuration not stated)
0.0
Cc1ccc(N2CC(C(=O)N3CCC4(CC3)CC(=O)c3ccccc3O4)CC2=O)cc1C (configuration not stated)
1.0
O=C(O)C1=C/C(=C/C=[N+]2c3cc(O)c(O[C@H]4OC(CO)[C@@H](O)[C@@H](O)[C@@H]4O)cc3C[C@@H]2C(=O)[O-])C[C@H](C(=O)O)N1 (some centres not stated)
0.0
Cc1cc(Cl)ccc1C(=O)C1CCCN(C(=O)c2ccc3c(c2)OCO3)C1 (configuration not stated)
0.0
CCOc1ccc(NC(=O)CSc2nnc3c(n2)[nH]c2ccc(S(=O)(=O)N4CCOCC4)cc23)cc1
0.0
O=C1CC2(CCCC2)Oc2ccc(Cl)cc21
0.0
CC1(C(=O)NS(=O)(=O)c2cccc(OC(F)F)c2)CCN1C(=O)C1CC1 (configuration not stated)
0.0
O=C1NC[C@H](CCCCN2C[C@H](Cc3ccccc3)N(Cc3ccccc3)C(=O)C2=O)N(CCc2ccc(O)cc2)C1=O
0.0
CCN(CC)C(=O)C1=C(C)N(Cc2ccc(OC)cc2)C(=O)C(CC(=O)NCc2ccco2)C1 (configuration not stated)
0.0
C[C@@H]1CC2=C(C(=O)OC(C)(C)O2)[C@@H](C2CC2)O1
0.0
COc1ccc(CCNC(=O)COc2ccc3c(c2)OCO3)cc1
0.0
COc1ccccc1/C=C/C(=O)NC(=S)N1CCOCC1
0.0
C[C@@H]1CN([C@@H](C)CO)C(=O)CCCn2nncc2CO[C@H]1CN(C)Cc1ccc(C(F)(F)F)cc1
0.0
CCCCNC(=O)c1nc(C2CCN(S(=O)(=O)c3ccc(F)c(F)c3)CC2)oc1-c1cccc(C(F)(F)F)c1
0.0
CCCCC[C@H](C)N1C[C@@H](COCc2ccccc2)Oc2cc(N3CC[C@@H](N(C)C)C3)ccc2S1(=O)=O
0.0
COc1cccc2[nH]c(C(=O)NCCc3ccccc3)cc12
0.0
COc1ccccc1/C=C/c1nc(C#N)c(NC(C)c2ccccc2)o1 (configuration not stated)
0.0
COc1cccc(NC(=S)NCc2ccccn2)c1
0.0
OC(c1ccccc1)(c1ccccc1)C1CCN(CCCOc2ccccc2)CC1
0.0
CCCC(=O)Nc1ccc2oc(-c3ccc(O)c(Br)c3)nc2c1
0.0

====

# TEST SYSTEM: ATP-dependent Clp protease proteolytic subunit (Bacillus subtilis (strain 168)) (UniProt P80244)
# ASSAY DETAILS: qHTS Assay for Activators of ClpP; also: the source files actives as falling curves though it sought activators and does not explain the sign; nearly all actives have a fitted effect of over 65% in size
# DETAILS: purified B. subtilis ClpP, FRET peptide cleavage, 20 min; series mostly up to 57.5 µM
The campaign covered roughly 340,000 compounds. About 6,400 (1.9%) were called active. About 4% were inconclusive and are not listed. Calls come from the whole dose curve; as a rule, active = well fitted falling curve with a large enough effect; inconclusive = small, poorly fitted or top-dose-only effect; inactive = no such curve, though single readings can be large or run the other way. The entries come from a sample that favours actives as a whole.
Labels: t = active, f = inactive

COc1cc([N+](=O)[O-])ccc1NC(=O)CN1CCCC1
f
COc1ccccc1CC(=O)Nc1ccc(F)cc1F
f
CCOCCCNC(=O)c1cc2c(=O)n3ccccc3nc2s1
f
COc1cccc(-c2ccc3c(c2)N(Cc2ccccc2OC)C(=O)C(C)S3)c1 (stereo unspecified)
f
Brc1cccc[n+]1Cc1cccc(C[n+]2ccccc2Br)c1
f
CCc1nc2c(OCCOc3ccccc3)cccn2c1N(C)C(=O)c1ccccc1F
f
Cc1cc(Nc2ccc(C)c(C)c2)n2ncnc2n1
f
COc1ccc(NC(=O)CN(C)C(=O)c2cc(-c3ccc(C)o3)nc3ccccc23)cc1
t
COc1cc(OC)c(OC)cc1/C=C1\C=Cc2ccccc21
f
Nc1nc2c(Br)ccc(Br)c2cc1C(=O)NCCc1ccccc1
f
COc1cccc(NC(=O)CN(C)C(=O)c2cc(Cl)nc3ccccc23)c1
f
